- targetSystem: Peptidyl-prolyl cis-trans isomerase FKBP1A (Homo sapiens)
- Sequence (P62942 whole entry): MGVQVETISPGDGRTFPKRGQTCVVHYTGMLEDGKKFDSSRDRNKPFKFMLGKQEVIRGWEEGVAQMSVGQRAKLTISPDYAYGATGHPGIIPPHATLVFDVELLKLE
assayReadout: pKd
Answers are plain numbers, as −log10 of the molar value.

**Query** I have this compound here, C=CCCC[C@H](OC(=O)[C@@H]1CCCCN1C(=O)C(=O)[C@]1(O)O[C@H](COC)[C@@H](OC)C[C@H]1C)/C(C)=C/[C@@H]1CC[C@@H](O)[C@H](OC)C1 , and I need its recorded pKd.
**Result** 8.00
